# Species: Rattus norvegicus
# protocol: Open TG-GATES - Regimen: Daily Repeat
# Format: toxicity, organism-based, Sprague-Dawley
# Design: regimen Daily Repeat, gender Male, age 6 weeks
# conditions_used: in vivo, po, 1000 mg/kg, […], tissue Blood, route gavage, dose level High, time 28 day
measured_property: Neu (%)
Express it in %; write the number only.

Prompt: Would you mind telling me what Neu value was observed for O=C(O)c1ccccc1Nc1ccccc1 ?
Response: 27.5

Prompt: Would you mind telling me what Neu value was observed for CCCCNC(=O)NS(=O)(=O)c1ccc(C)cc1 [TOLBUTAMIDE] ?
Response: 11.2

Prompt: Would you mind telling me what Neu value was observed for CC(S)C(=O)NCC(=O)O (centres undefined) ?
Response: 16.2

Prompt: Would you mind telling me what Neu value was observed for CC(=O)[C@@]1(O)CC[C@H]2[C@@H]3C=C(Cl)C4=CC(=O)CC[C@]4(C)[C@H]3CC[C@@]21C ?
Response: 9.6

----------
I'd be grateful if you could share measured BUN for these entries.
# Species on record: Rattus norvegicus
# protocol: Open TG-GATES - Regimen: Single
# Format: toxicity, organism-based, Sprague-Dawley
# Design: regimen Single, gender Male, age 6 weeks
# conditions_used: in vivo, po, 0 mg/kg, 3 h, tissue Plasma, route gavage, dose level Control
Express it in mg/dL; write the number only.

Prompt: Would you mind telling me what BUN value was observed for CCO ?
Response: 13

Prompt: Would you mind telling me what BUN value was observed for O=c1ccc2ccccc2o1 ?
Response: 11.2

Prompt: Would you mind telling me what BUN value was observed for NS(=O)(=O)c1cc(C(=O)O)c(NCc2ccco2)cc1Cl [FUROSEMIDE] ?
Response: 10.2

Prompt: Would you mind telling me what BUN value was observed for CC(=O)[C@@]1(O)CC[C@H]2[C@@H]3C=C(Cl)C4=CC(=O)CC[C@]4(C)[C@H]3CC[C@@]21C ?
Response: 13.4

Prompt: Would you mind telling me what BUN value was observed for O=C(O)c1ccccc1Nc1ccccc1 ?
Response: 9.2

Prompt: Would you mind telling me what BUN value was observed for CN(C/C=C/C#CC(C)(C)C)Cc1cccc2ccccc12 ?
Response: 12

Prompt: Would you mind telling me what BUN value was observed for CN(CCOc1ccc(CC2SC(=O)NC2=O)cc1)c1ccccn1.O=C(O)/C=C\C(=O)O (stereo unspecified) [ROSIGLITAZONE MALEATE] ?
Response: 13

Prompt: Would you mind telling me what BUN value was observed for CCCCNC(=O)NS(=O)(=O)c1ccc(C)cc1 [TOLBUTAMIDE] ?
Response: 9.8

Prompt: Would you mind telling me what BUN value was observed for Nc1ccc(Cc2ccc(N)cc2)cc1 ?
Response: 9.8

Prompt: Would you mind telling me what BUN value was observed for CC(S)C(=O)NCC(=O)O (stereo unspecified) ?
Response: 11.4

Prompt: Would you mind telling me what BUN value was observed for CN(C)CCCN1c2ccccc2Sc2ccc(Cl)cc21 ?
Response: 12.2

----------
I'd be grateful if you could share measured Cl for these entries.
# Species on record: Rattus norvegicus
# protocol: Open TG-GATES - Regimen: Daily Repeat
# Assay type: toxicity, organism-based, Sprague-Dawley
# Design: regimen Daily Repeat, gender Male, age 6 weeks
# conditions_used: in vivo, po, 100 mg/kg, […], tissue Plasma, route gavage, dose level Low, time 14 day
Express it in meq/L; write the number only.

Prompt: Would you mind telling me what Cl value was observed for CC(S)C(=O)NCC(=O)O (centres undefined) ?
Response: 107.4

Prompt: Would you mind telling me what Cl value was observed for CCCCNC(=O)NS(=O)(=O)c1ccc(C)cc1 [TOLBUTAMIDE] ?
Response: 104.6

Prompt: Would you mind telling me what Cl value was observed for O=C(O)c1ccccc1Nc1ccccc1 ?
Response: 105.2

Prompt: Would you mind telling me what Cl value was observed for CC(=O)[C@@]1(O)CC[C@H]2[C@@H]3C=C(Cl)C4=CC(=O)CC[C@]4(C)[C@H]3CC[C@@]21C ?
Response: 107.8

----------
# Species on record: Rattus norvegicus
# protocol: Open TG-GATES - Regimen: Daily Repeat
# Assay type: toxicity, organism-based, Sprague-Dawley
# Parameters: regimen Daily Repeat, gender Male, age 6 weeks
# conditions_used: in vivo, po, 300 mg/kg, 72 h, tissue Blood, route gavage, dose level Middle, time 3 day
measured_property: Hb
Could you give the number and then its unit, please?

Prompt: Would you mind telling me what Hb value was observed for CC(S)C(=O)NCC(=O)O (centres undefined) [TIOPRONIN] ?
Response: 13.5 g/dL

Prompt: Would you mind telling me what Hb value was observed for CC(=O)[C@@]1(O)CC[C@H]2[C@@H]3C=C(Cl)C4=CC(=O)CC[C@]4(C)[C@H]3CC[C@@]21C [CHLORMADINONE] ?
Response: 14.1 g/dL

Prompt: Would you mind telling me what Hb value was observed for CCCCNC(=O)NS(=O)(=O)c1ccc(C)cc1 [TOLBUTAMIDE] ?
Response: 13.7 g/dL

Prompt: Would you mind telling me what Hb value was observed for O=C(O)c1ccccc1Nc1ccccc1 [FENAMIC ACID] ?
Response: 13.4 g/dL

----------
# Species on record: Rattus norvegicus
# protocol: Open TG-GATES - Regimen: Single
# Type: toxicity, organism-based, Sprague-Dawley
# Set-up: regimen Single, gender Male, age 6 weeks
# conditions_used: in vivo, po, 0 mg/kg, 24 h, tissue Blood, route gavage, dose level Control
measured_property: Bas (%)
Express it in %; write the number only.

Prompt: Would you mind telling me what Bas value was observed for CC(S)C(=O)NCC(=O)O (centres undefined) [TIOPRONIN] ?
Response: 0

Prompt: Would you mind telling me what Bas value was observed for C=C[C@H]1C[N@@]2CC[C@H]1C[C@@H]2[C@@H](O)c1ccnc2ccc(OC)cc12 [QUINIDINE] ?
Response: 0

Prompt: Would you mind telling me what Bas value was observed for CCCCNC(=O)NS(=O)(=O)c1ccc(C)cc1 [TOLBUTAMIDE] ?
Response: 0.2

Prompt: Would you mind telling me what Bas value was observed for COc1ccc([C@@H]2Sc3ccccc3N(CCN(C)C)C(=O)[C@@H]2OC(C)=O)cc1 [DILTIAZEM] ?
Response: 0

Prompt: Would you mind telling me what Bas value was observed for CN(C)CCCN1c2ccccc2Sc2ccc(Cl)cc21 [CHLORPROMAZINE] ?
Response: 0.8

Prompt: Would you mind telling me what Bas value was observed for CN(C/C=C/C#CC(C)(C)C)Cc1cccc2ccccc12 [TERBINAFINE] ?
Response: 0.8

Prompt: Would you mind telling me what Bas value was observed for COc1cc2ncnc(Nc3ccc(F)c(Cl)c3)c2cc1OCCCN1CCOCC1 [GEFITINIB] ?
Response: 0

Prompt: Would you mind telling me what Bas value was observed for CC(=O)[C@@]1(O)CC[C@H]2[C@@H]3C=C(Cl)C4=CC(=O)CC[C@]4(C)[C@H]3CC[C@@]21C [CHLORMADINONE] ?
Response: 0

Prompt: Would you mind telling me what Bas value was observed for CN(CCOc1ccc(CC2SC(=O)NC2=O)cc1)c1ccccn1.O=C(O)/C=C\C(=O)O (centres undefined) [ROSIGLITAZONE MALEATE] ?
Response: 0

----------
# Species: Rattus norvegicus
# protocol: Open TG-GATES - Regimen: Single
# Type: toxicity, organism-based, Sprague-Dawley
# Parameters: regimen Single, gender Male, age 6 weeks
# conditions_used: in vivo, po, 0 mg/kg, 24 h, tissue Blood, route gavage, dose level Control
I'd be grateful if you could share measured Hb for these entries.
Express it in g/dL; write the number only.

Prompt: Would you mind telling me what Hb value was observed for CN(C)CCCN1c2ccccc2Sc2ccc(Cl)cc21 [CHLORPROMAZINE] ?
Response: 13

Prompt: Would you mind telling me what Hb value was observed for CN(CCOc1ccc(CC2SC(=O)NC2=O)cc1)c1ccccn1.O=C(O)/C=C\C(=O)O (stereo not given) [ROSIGLITAZONE MALEATE] ?
Response: 12.8

Prompt: Would you mind telling me what Hb value was observed for CC(=O)[C@@]1(O)CC[C@H]2[C@@H]3C=C(Cl)C4=CC(=O)CC[C@]4(C)[C@H]3CC[C@@]21C [CHLORMADINONE] ?
Response: 13.3

Prompt: Would you mind telling me what Hb value was observed for CC(S)C(=O)NCC(=O)O (stereo not given) [TIOPRONIN] ?
Response: 12.9

Prompt: Would you mind telling me what Hb value was observed for CCN(CC)C(=S)SSC(=S)N(CC)CC ?
Response: 12.5

Prompt: Would you mind telling me what Hb value was observed for CCCCNC(=O)NS(=O)(=O)c1ccc(C)cc1 [TOLBUTAMIDE] ?
Response: 13.3

Prompt: Would you mind telling me what Hb value was observed for CN(C/C=C/C#CC(C)(C)C)Cc1cccc2ccccc12 [TERBINAFINE] ?
Response: 13.2

Prompt: Would you mind telling me what Hb value was observed for O=c1ccc2ccccc2o1 [COUMARIN] ?
Response: 13.2

Prompt: Would you mind telling me what Hb value was observed for O=C(O)c1ccccc1Nc1ccccc1 [FENAMIC ACID] ?
Response: 13.5

Prompt: Would you mind telling me what Hb value was observed for NS(=O)(=O)c1cc(C(=O)O)c(NCc2ccco2)cc1Cl [FUROSEMIDE] ?
Response: 13.1
